- ASSAY_OVERVIEW: Critical micelle concentration (CMC) by dye solubilization (Orange OT or DPH)
- Type: physicochemical
- COND: determined by DPH (diphenylhexatriene) or Orange OT
RECORDED_METRIC: CMC (%)

Here is how some molecules turned out for CMC (%).
O=C(CC1(C2CCCCC2)CCCCCC1)NC(CO[C@@H]1O[C@H](CO)[C@@H](O)[C@H](O)[C@H]1O)CO[C@@H]1O[C@H](CO)[C@@H](O)[C@H](O)[C@H]1O | 0.88
CCCCC(CCCC)(CC(=O)NCCO[C@@H]1O[C@H](CO)[C@@H](O[C@H]2O[C@H](CO)[C@@H](O)[C@H](O)[C@H]2O)[C@H](O)[C@H]1O)c1ccccc1 | 0.25

P = CC12CC3CC(C)(C1)CC(CC(=O)NCCO[C@H]1OC(CO)[C@H](O[C@@H]4OC(CO)[C@H](O)C(O)[C@H]4O)C(O)[C@H]1O)(C3)C2 (stereo partly drawn)
Q = CC(C)(C)CC(C)(C)c1ccc(OCC(=O)NCCC[N+](C)(C)[O-])cc1 [Triton-N-oxide]
R = CCCCC(CCCC)(CC(=O)NC(COC1OC(CO)C(OC2OC(CO)C(O)C(O)C2O)C(O)C1O)COC1OC(CO)C(OC2OC(CO)C(O)C(O)C2O)C(O)C1O)c1ccc(-c2ccccc2)cc1 (stereo not drawn)
S = CCCCC(CCCC)(CC(=O)NC(CO[C@@H]1O[C@H](CO)[C@@H](O)[C@H](O)[C@H]1O)CO[C@@H]1O[C@H](CO)[C@@H](O)[C@H](O)[C@H]1O)c1ccc(C(C)C)cc1
# rank by CMC (%), ascending (min first) Write out the labels following the order that was asked for.
Q, S, R, P
(Q: 0.04%, S: 0.091%, R: 0.18%, P: 1.1%)
